Hey, just so you know, these numbers are from PubChem BioAssay AID2060906.

Tested on: 485176-168-R4-J1-PDC complex spheroid growth
Assay: Anticancer human tumor 485176-168-R4-J1-PDC patient-derived pancreatic adenocarcinoma cell line growth inhibition [RAS]
Settings: second compound 0.316 µM; first compound 0.00949 µM; stronger effect = lower value
Description: RAS pathway inhibitors in Combinations in Complex Spheroids A high-throughput screen of multi-cell type tumor spheroids was designed to identify active combinations of RAS pathway inhibitors and targeted small molecules. Complex spheroids include a stromal component modeled by human endothelial cells (HUVEC) and fibroblasts modeled by human mesenchymal stem cells (MSCs). […] Compounds. […] If the clinical Cmax for an agent had not been determined, the highest concentration tested was 10 microM. […]
Below: a set of entries, each annotated with reported viability, T/C.
OBSERVED PROPERTY: viability, T/C

INSERT INTO measurements (compound, obs_value) VALUES
  ('CCc1c2c(nc3ccc(O)cc13)-c1cc3c(c(=O)n1C2)COC(=O)[C@]3(O)CC + C=CC(=O)N1CCN(c2nc(OCC3CCCN3C)nc3c(F)c(-c4nc(N)cc(C)c4C(F)(F)F)c(Cl)cc23)C(C)C1', '71.8%'),
  ('CCc1c2c(nc3ccc(O)cc13)-c1cc3c(c(=O)n1C2)COC(=O)[C@]3(O)CC + C#Cc1c(F)ccc2cc(O)cc(-c3ncc4c(N5CC6CCC(C5)N6)nc(OCC56CCCN5CC(F)C6)nc4c3F)c12', '60.7%'),
  ('CC1(C)CCC(Nc2ncc(C(F)(F)F)c(-c3c[nH]c4c(P(C)(C)=O)c(C#N)ccc34)n2)CN1 (centres undefined) + C=CC(=O)N1CCN(c2nc(OCC3CCCN3C)nc3c(F)c(-c4nc(N)cc(C)c4C(F)(F)F)c(Cl)cc23)C(C)C1', '81%'),
  ('CC1(C)CCC(Nc2ncc(C(F)(F)F)c(-c3c[nH]c4c(P(C)(C)=O)c(C#N)ccc34)n2)CN1 (centres undefined) + C#Cc1c(F)ccc2cc(O)cc(-c3ncc4c(N5CC6CCC(C5)N6)nc(OCC56CCCN5CC(F)C6)nc4c3F)c12', '84.5%');

---

test system: 485176-168-R4-J1-PDC complex spheroid growth; test: Anticancer human tumor 485176-168-R4-J1-PDC cell line growth inhibition [RAS]; settings: second compound 0.0949 µM; first compound 0.316 µM; stronger effect = lower value;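 note: spheroids exposed to compounds for seven days before readout; luminescence viability expressed relative to DMSO vehicle wells set as 100%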
# viability, T/C per entry
OBSERVED PROPERTY: viability, T/C (%)

INSERT INTO assay_data (compound, observed_property, obs_value) VALUES
  ('Nc1ccn(C2OC(CO)C(O)C2(F)F)c(=O)n1 (stereo not given) + CCn1c(-c2cccnc2C(C)OC)c2c3cc(ccc31)N1CCOC(CC(NC(=O)C(C(C)C)N(C)C(=O)C3(F)CCN(C(=O)C#CC(C)(C)N(C)C)CC3)C(=O)N3CCCC(N3)C(=O)OCC(C)(C)C2)C1', 'viability, T/C', 7.38),
  ('NC1c2ccccc2OC12CCN(c1cnc3c(N4CCCc5ncccc54)n[nH]c3n1)CC2 (stereo not given) + CCn1c(-c2cccnc2C(C)OC)c2c3cc(ccc31)N1CCOC(CC(NC(=O)C(C(C)C)N(C)C(=O)C3(F)CCN(C(=O)C#CC(C)(C)N(C)C)CC3)C(=O)N3CCCC(N3)C(=O)OCC(C)(C)C2)C1', 'viability, T/C', 72.7),
  ('C=CC(=O)Nc1cc(Nc2nccc(-c3cn(C)c4ccccc34)n2)c(OC)cc1N(C)CCN(C)C + CCn1c(-c2cccnc2C(C)OC)c2c3cc(ccc31)N1CCOC(CC(NC(=O)C(C(C)C)N(C)C(=O)C3(F)CCN(C(=O)C#CC(C)(C)N(C)C)CC3)C(=O)N3CCCC(N3)C(=O)OCC(C)(C)C2)C1', 'viability, T/C', 92.3),
  ('C=CC(=O)Nc1cc(Nc2nccc(-c3cn(C)c4ccccc34)n2)c(OC)cc1N(C)CCN(C)C + CCn1c(-c2cc(N3CCN(C)CC3)cnc2C(C)OC)c2c3cc(ccc31)-c1csc(n1)CC(NC(=O)C1CC1C)C(=O)N1CCCC(N1)C(=O)OCC(C)(C)C2', 'viability, T/C', 83.3),
  ('CC(C)NCC(C(=O)N1CCN(c2ncnc3c2C(C)CC3O)CC1)c1ccc(Cl)cc1 (stereo not given) + CCn1c(-c2cc(N3CCN(C)CC3)cnc2C(C)OC)c2c3cc(ccc31)-c1csc(n1)CC(NC(=O)C1CC1C)C(=O)N1CCCC(N1)C(=O)OCC(C)(C)C2', 'viability, T/C', 70.3),
  ('CC(C)NCC(C(=O)N1CCN(c2ncnc3c2C(C)CC3O)CC1)c1ccc(Cl)cc1 (stereo not given) + CCn1c(-c2cccnc2C(C)OC)c2c3cc(ccc31)N1CCOC(CC(NC(=O)C(C(C)C)N(C)C(=O)C3(F)CCN(C(=O)C#CC(C)(C)N(C)C)CC3)C(=O)N3CCCC(N3)C(=O)OCC(C)(C)C2)C1', 'viability, T/C', 78.7),
  ('Cc1nc(N2CCC3(CC2)COC(C)C3N)c(CO)nc1Sc1ccnc(N)c1Cl (stereo not given) + CCn1c(-c2cc(N3CCN(C)CC3)cnc2C(C)OC)c2c3cc(ccc31)-c1csc(n1)CC(NC(=O)C1CC1C)C(=O)N1CCCC(N1)C(=O)OCC(C)(C)C2', 'viability, T/C', 59.9),
  ('NC1c2ccccc2OC12CCN(c1cnc3c(N4CCCc5ncccc54)n[nH]c3n1)CC2 (stereo not given) + CCn1c(-c2cc(N3CCN(C)CC3)cnc2C(C)OC)c2c3cc(ccc31)-c1csc(n1)CC(NC(=O)C1CC1C)C(=O)N1CCCC(N1)C(=O)OCC(C)(C)C2', 'viability, T/C', 76.9),
  ('CCN1CCN(Cc2ccc(Nc3ncc(F)c(-c4cc(F)c5nc(C)n(C(C)C)c5c4)n3)nc2)CC1 + CCn1c(-c2cccnc2C(C)OC)c2c3cc(ccc31)N1CCOC(CC(NC(=O)C(C(C)C)N(C)C(=O)C3(F)CCN(C(=O)C#CC(C)(C)N(C)C)CC3)C(=O)N3CCCC(N3)C(=O)OCC(C)(C)C2)C1', 'viability, T/C', 80),
  ('C[C@@H](NC(=O)c1ncnc(N)c1Cl)c1ncc(C(=O)Nc2cc(C(F)(F)F)c(Cl)cn2)s1 + CCn1c(-c2cccnc2C(C)OC)c2c3cc(ccc31)N1CCOC(CC(NC(=O)C(C(C)C)N(C)C(=O)C3(F)CCN(C(=O)C#CC(C)(C)N(C)C)CC3)C(=O)N3CCCC(N3)C(=O)OCC(C)(C)C2)C1', 'viability, T/C', 78.5);
